Value source: patent US20110143948A1

Please go through the items and note down their ncRNA array expression, patient 4.
System: ncRNAs (SEQ ID NO 28-89)
Assay: ncRNA arrays of melanocytes, keratinocytes, normal skin, melanoma cell lines and patient samples
Parameters: species or system human
Conditions: melanoma patient 4 sample compared to normal skin
Give bare numbers.

Req: State its ncRNA array expression, patient 4 for this substance: SEQ ID NO 84 (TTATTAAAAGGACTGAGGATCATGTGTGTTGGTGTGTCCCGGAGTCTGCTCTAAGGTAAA; listed as DNA, chemistry not given here; listed as Homo sapiens)
Resp: 1.046

Hello, I would appreciate it if you could give ncRNA array expression, patient 4 for each entry below.
1. SEQ ID NO 51 (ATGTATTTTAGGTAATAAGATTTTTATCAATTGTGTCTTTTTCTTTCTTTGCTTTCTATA; listed as DNA, chemistry not given here; listed as Homo sapiens)
2. SEQ ID NO 86 (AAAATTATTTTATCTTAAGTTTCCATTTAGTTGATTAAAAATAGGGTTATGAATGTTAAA; listed as DNA, chemistry not given here; listed as Homo sapiens)
3. SEQ ID NO 34 (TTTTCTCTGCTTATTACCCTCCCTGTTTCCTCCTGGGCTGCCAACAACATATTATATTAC; listed as DNA, chemistry not given here; listed as Homo sapiens)
4. SEQ ID NO 69 (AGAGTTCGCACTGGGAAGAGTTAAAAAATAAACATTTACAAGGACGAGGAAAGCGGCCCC; listed as DNA, chemistry not given here; listed as Homo sapiens)

Resp:
2.264
5.076
2.701
−1.369
